# IC50 per entry
Measured On: Bromodomain adjacent to zinc finger domain protein 2B (Homo sapiens, UniProt Q9UIF8)
Sequence (Q9UIF8 whole entry, the tested form may be a part): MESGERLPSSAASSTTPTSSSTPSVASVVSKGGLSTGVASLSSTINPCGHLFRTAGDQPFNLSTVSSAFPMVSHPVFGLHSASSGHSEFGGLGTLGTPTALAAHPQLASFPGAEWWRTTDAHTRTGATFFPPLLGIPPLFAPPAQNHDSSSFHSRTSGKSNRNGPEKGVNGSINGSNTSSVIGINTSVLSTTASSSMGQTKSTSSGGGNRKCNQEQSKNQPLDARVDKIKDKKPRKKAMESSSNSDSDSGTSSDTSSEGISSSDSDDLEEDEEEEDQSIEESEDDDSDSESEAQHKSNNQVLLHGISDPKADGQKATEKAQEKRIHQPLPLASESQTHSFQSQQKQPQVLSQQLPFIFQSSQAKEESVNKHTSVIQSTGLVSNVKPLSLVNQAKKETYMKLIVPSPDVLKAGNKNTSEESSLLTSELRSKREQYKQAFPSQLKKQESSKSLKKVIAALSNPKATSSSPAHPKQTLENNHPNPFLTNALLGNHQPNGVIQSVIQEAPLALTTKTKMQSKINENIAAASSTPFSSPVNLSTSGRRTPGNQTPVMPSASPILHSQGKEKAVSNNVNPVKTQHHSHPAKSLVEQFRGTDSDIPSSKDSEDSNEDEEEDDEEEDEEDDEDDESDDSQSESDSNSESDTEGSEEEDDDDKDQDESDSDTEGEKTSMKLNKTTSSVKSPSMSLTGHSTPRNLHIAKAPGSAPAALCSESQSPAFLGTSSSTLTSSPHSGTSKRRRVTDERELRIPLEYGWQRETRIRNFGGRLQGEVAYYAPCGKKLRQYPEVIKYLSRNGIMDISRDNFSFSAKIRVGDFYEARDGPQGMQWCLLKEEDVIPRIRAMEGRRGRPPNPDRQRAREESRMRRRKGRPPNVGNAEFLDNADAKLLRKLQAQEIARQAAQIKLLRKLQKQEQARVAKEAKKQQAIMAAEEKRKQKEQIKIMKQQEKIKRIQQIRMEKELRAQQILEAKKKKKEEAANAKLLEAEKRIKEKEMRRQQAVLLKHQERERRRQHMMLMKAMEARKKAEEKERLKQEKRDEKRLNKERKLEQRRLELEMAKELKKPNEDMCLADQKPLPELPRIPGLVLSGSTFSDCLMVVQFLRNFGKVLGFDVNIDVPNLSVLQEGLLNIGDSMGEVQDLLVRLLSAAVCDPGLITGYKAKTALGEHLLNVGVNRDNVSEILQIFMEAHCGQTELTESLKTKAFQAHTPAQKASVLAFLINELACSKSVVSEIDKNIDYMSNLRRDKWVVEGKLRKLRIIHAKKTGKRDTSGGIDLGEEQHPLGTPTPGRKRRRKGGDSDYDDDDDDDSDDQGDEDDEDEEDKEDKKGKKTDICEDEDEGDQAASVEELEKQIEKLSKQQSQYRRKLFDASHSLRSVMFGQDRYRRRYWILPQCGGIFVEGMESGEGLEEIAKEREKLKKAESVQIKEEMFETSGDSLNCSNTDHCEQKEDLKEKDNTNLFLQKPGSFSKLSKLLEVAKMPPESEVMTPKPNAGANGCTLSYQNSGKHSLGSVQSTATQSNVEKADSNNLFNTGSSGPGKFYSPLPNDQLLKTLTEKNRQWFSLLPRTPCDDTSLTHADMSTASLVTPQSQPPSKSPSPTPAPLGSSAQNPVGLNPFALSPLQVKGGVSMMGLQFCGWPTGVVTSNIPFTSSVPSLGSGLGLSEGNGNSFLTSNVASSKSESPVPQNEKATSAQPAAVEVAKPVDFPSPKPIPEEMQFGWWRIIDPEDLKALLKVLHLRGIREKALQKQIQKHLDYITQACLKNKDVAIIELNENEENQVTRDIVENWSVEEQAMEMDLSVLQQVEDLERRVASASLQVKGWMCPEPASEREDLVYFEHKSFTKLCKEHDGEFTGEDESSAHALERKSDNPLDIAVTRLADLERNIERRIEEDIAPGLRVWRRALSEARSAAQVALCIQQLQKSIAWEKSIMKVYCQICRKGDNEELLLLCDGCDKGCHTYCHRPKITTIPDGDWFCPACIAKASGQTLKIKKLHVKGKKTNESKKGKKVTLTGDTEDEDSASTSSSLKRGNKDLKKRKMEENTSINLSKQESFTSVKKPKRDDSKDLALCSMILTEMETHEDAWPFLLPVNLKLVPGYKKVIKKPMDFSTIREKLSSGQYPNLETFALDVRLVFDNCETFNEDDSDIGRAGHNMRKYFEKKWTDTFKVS
Assay Protocol: Inhibition of human BAZ2B by alpha screen assay
Give the number; µM is assumed, so skip it.

- Test Smiles: "CCCOc1ccn2c(C(C)=O)cc(-c3ccccn3)c2c1"
  IC50 / µM: 2.51
- Test Smiles: "CC(=O)c1cc(-c2cccc(C)n2)c2cc(N3CCOCC3)ccn12"
  IC50 / µM: 15.8

IN: Find the measured IC50: item CC(=O)c1cc(-c2ccccn2)c2cc(N3CCOCC3)ccn12 , target or system Bromodomain adjacent to zinc finger domain protein 2B (Homo sapiens, UniProt Q9UIF8).
OUT: 3.16

----------
Measured On: Bromodomain-containing protein 9 (Homo sapiens)
Sequence (Q9H8M2 whole entry): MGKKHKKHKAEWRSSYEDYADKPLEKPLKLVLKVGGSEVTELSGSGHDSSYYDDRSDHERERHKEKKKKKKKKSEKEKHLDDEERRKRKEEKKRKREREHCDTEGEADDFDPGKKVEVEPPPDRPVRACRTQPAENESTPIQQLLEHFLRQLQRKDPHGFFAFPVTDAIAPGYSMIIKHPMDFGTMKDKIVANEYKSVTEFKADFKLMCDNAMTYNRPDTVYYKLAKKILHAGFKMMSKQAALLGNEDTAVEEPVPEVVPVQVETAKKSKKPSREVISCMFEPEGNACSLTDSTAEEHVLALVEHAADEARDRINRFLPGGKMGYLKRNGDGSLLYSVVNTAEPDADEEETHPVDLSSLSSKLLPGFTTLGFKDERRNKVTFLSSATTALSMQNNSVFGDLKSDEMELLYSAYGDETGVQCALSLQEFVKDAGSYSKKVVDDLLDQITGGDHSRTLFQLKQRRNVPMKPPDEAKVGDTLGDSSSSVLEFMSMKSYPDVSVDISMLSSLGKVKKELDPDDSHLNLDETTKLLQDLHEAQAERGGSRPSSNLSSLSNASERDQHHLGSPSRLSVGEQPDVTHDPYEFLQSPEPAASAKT
Assay Protocol: Inhibition of human BRD9 by alpha screen assay
Observed Property: IC50 (nM)
Give the number; nM is assumed, so skip it.

Below: 3 compounds and their reported IC50.
- Test Smiles: "CC(=O)c1cc(-c2cccc(C)n2)c2cc(N3CCOCC3)ccn12"
  Unit Tag: "nM"
  Value: 501
- Test Smiles: "CC(=O)c1cc(-c2ccccn2)c2cc(N3CCOCC3)ccn12"
  Unit Tag: "nM"
  Value: 501
- Test Smiles: "CC(=O)c1cc(-c2cccc3nccn23)c2cc(N3CCOCC3)ccn12"
  Unit Tag: "nM"
  Value: 126

IN: Requested field: IC50. Item: CCCOc1ccn2c(C(C)=O)cc(-c3ccccn3)c2c1
OUT: 2510

----------
Measured On: Bromodomain-containing protein 4 (Homo sapiens, UniProt O60885)
Assay Protocol: Inhibition of human BRD4 by alpha screen assay
pIC50: −log10 of the molar value.
Observed Property: pIC50

IN: Find the measured pIC50: item CC(=O)c1cc(-c2cccc3nccn23)c2cc(N3CCN(C)CC3)ccn12 , target or system Bromodomain-containing protein 4 (Homo sapiens, UniProt O60885).
OUT: ≥ 6.00

----------
Measured On: Bromodomain-containing protein 9 (Homo sapiens) (UniProt Q9H8M2)
Assay Protocol: Binding affinity to human BRD9 assessed as change in melting temperature at 10 uM by differential scanning fluorimetry
Observed Property: ΔTm
Quick note: number first, unit second.

Below: 5 compounds and their reported ΔTm.
- Test Smiles: "CN1CCN(c2ccn3c(C(=O)C(F)(F)F)cc(-c4cccc5nccn45)c3c2)CC1"
  ΔTm: "0.3 °C"
- Test Smiles: "CC(=O)c1cc(-c2ncccn2)c2cc(N3CCOCC3)ccn12"
  ΔTm: "0.035 °C"
- Test Smiles: "CC(=O)c1cc(-c2ccc(Cl)cn2)c2cc(N3CCOCC3)ccn12"
  ΔTm: "-0.23 °C"
- Test Smiles: "CC(=O)c1cc(-c2ncc(C)cc2F)c2cc(N3CCOCC3)ccn12"
  ΔTm: "-0.28 °C"
- Test Smiles: "CCCOc1ccn2c(C(C)=O)cc(-c3cc(C(=O)OC)ccn3)c2c1"
  ΔTm: "-0.03 °C"

IN: Requested field: ΔTm. Item: CC(=O)c1cc(-c2ccc(C(F)(F)F)cn2)c2cc(N3CCOCC3)ccn12
OUT: -1.1 °C

IN: Requested field: ΔTm. Item: CCCOc1ccn2c(C(C)=O)cc(-c3cccc(Cl)n3)c2c1
OUT: 0.085 °C

IN: Requested field: ΔTm. Item: CN1CCN(c2ccn3c(C(=O)C4CC4)cc(-c4cccc5nccn45)c3c2)CC1
OUT: 0.76 °C

IN: Requested field: ΔTm. Item: CC(=O)c1cc(-c2ncccc2F)c2cc(N3CCOCC3)ccn12
OUT: 1.3 °C

IN: Requested field: ΔTm. Item: CC(=O)c1cc(-c2ccccn2)c2cc(N3CCOCC3)ccn12
OUT: 5.7 °C

----------
Measured On: Bromodomain-containing protein 9 (Homo sapiens)
Assay Protocol: Binding affinity to human BRD9 by isothermal titration calorimetry
Observed Property: Kd (nM)
Give the number; nM is assumed, so skip it.

IN: Requested field: Kd. Item: CC(=O)c1cc(-c2cccc3nccn23)c2cc(N3CCOCC3)ccn12
OUT: 68

----------
Measured On: Bromodomain-containing protein 9 (Homo sapiens) (UniProt Q9H8M2)
Assay Protocol: Binding affinity to human BRD9 assessed as change in melting temperature at 10 uM by differential scanning fluorimetry
Observed Property: ΔTm (°C)
Give the number; °C is assumed, so skip it.

Below: 4 molecules and their reported ΔTm.
- Test Smiles: "CCCOc1ccn2c(C(C)=O)cc(-c3ccccn3)c2c1"
  ΔTm [°C]: 1.1
- Test Smiles: "CCC(=O)c1cc(-c2cccc3nccn23)c2cc(N3CCN(C)CC3)ccn12"
  ΔTm [°C]: 1.2
- Test Smiles: "CC(=O)c1cc(-c2cccc3nccn23)c2cc(N3CCOCC3)ccn12"
  ΔTm [°C]: 4.5
- Test Smiles: "CCCCC(=O)c1cc(-c2cccc3nccn23)c2cc(N3CCN(C)CC3)ccn12"
  ΔTm [°C]: 0.27

IN: Requested field: ΔTm. Item: CC(=O)c1cc(-c2ccccn2)c2cc(N3CCNCC3)ccn12
OUT: 5.7

IN: Requested field: ΔTm. Item: CC(=O)c1cc(-c2cccc3nccn23)c2cc(N3CCN(C)CC3)ccn12
OUT: 7.5

IN: Requested field: ΔTm. Item: COC(=O)c1ccnc(-c2cc(C(C)=O)n3ccc(N4CCOCC4)cc23)c1
OUT: 0.35

IN: Requested field: ΔTm. Item: CCC(=O)c1cc(-c2cccc3nccn23)c2cc(N3CCOCC3)ccn12
OUT: 3

IN: Requested field: ΔTm. Item: COc1cccc(-c2cc(C(C)=O)n3ccc(N4CCOCC4)cc23)n1
OUT: 1.3

IN: Requested field: ΔTm. Item: CC(=O)c1cc(-c2cccc3nccn23)c2cc(N3CCNCC3)ccn12
OUT: 5.1

----------
Measured On: Bromodomain-containing protein 4 (Homo sapiens, UniProt O60885)
Assay Protocol: Binding affinity to human BRD4 assessed as change in melting temperature at 10 uM by differential scanning fluorimetry
Mark label 0 for ΔTm values under 0.4 °C, and label 1 for everything at or above.

- Test Smiles: "CCCOc1ccn2c(C(C)=O)cc(-c3cccc(Cl)n3)c2c1"
  Cat: "label 0"
- Test Smiles: "CCC(=O)c1cc(-c2cccc3nccn23)c2cc(N3CCOCC3)ccn12"
  Cat: "label 1"
- Test Smiles: "CC(=O)c1cc(-c2cccc(C)n2)c2cc(N3CCOCC3)ccn12"
  Cat: "label 1"

Now turn to the next compound.
IN: Evaluate CCCOc1ccn2c(C(C)=O)cc(-c3ccccn3)c2c1 : ΔTm at minimum 0.4 °C?
OUT: label 0

----------
Measured On: Bromodomain-containing protein 9 (Homo sapiens) (UniProt Q9H8M2)
Assay Protocol: Binding affinity to human BRD9 assessed as change in melting temperature at 10 uM by differential scanning fluorimetry
# ΔTm per entry
Quick note: number first, unit second.

Below: 3 compounds and their reported ΔTm.
- Test Smiles: "CC(=O)c1cc(-c2nc3ccccc3s2)c2cc(N3CCOCC3)ccn12"
  Measured On: "Bromodomain-containing protein 9 (Homo sapiens) (UniProt Q9H8M2)"
  ΔTm: "-0.3 °C"
- Test Smiles: "O=C(c1cc(-c2cccc3nccn23)c2cc(N3CCOCC3)ccn12)C(F)(F)F"
  Measured On: "Bromodomain-containing protein 9 (Homo sapiens) (UniProt Q9H8M2)"
  ΔTm: "0.26 °C"
- Test Smiles: "CC(=O)c1cc(-c2cc(C(=O)O)ccn2)c2cc(N3CCOCC3)ccn12"
  Measured On: "Bromodomain-containing protein 9 (Homo sapiens) (UniProt Q9H8M2)"
  ΔTm: "-0.06 °C"

IN: Requested field: ΔTm. Item: CC(=O)c1cc(-c2cccc(C)n2)c2cc(N3CCOCC3)ccn12
OUT: 4.2 °C

IN: Requested field: ΔTm. Item: CC(=O)c1cc(-c2cccc(Cl)n2)c2cc(N3CCOCC3)ccn12
OUT: 0.81 °C

IN: Requested field: ΔTm. Item: CC(C)C(=O)c1cc(-c2cccc3nccn23)c2cc(N3CCN(C)CC3)ccn12
OUT: 1 °C

Values compiled from ChEMBL document CHEMBL3739345.
